I'd be grateful if you could share measured furin cleavage Z-score for these entries.
subject_of_test: furin, P09958
Sequence (P09958 whole entry): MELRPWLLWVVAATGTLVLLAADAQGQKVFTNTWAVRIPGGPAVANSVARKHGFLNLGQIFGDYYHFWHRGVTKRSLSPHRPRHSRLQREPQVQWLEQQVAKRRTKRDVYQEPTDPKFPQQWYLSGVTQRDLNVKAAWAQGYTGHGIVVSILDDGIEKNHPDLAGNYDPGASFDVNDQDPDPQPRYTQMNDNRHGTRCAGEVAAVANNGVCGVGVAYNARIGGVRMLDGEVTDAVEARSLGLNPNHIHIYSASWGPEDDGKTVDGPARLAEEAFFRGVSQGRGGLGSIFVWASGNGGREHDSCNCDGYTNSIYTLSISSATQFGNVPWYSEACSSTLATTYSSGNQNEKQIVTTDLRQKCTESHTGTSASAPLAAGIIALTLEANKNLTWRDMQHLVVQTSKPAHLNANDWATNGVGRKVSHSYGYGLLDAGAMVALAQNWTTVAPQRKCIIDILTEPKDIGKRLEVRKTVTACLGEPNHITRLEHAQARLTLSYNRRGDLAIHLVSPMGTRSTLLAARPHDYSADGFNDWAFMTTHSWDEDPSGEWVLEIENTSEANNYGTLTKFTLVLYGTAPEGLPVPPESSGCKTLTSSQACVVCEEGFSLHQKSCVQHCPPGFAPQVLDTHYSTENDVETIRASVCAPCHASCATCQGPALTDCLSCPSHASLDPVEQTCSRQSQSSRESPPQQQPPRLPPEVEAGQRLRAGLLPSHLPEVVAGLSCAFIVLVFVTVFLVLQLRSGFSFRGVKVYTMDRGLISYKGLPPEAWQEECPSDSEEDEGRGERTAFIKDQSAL
test_name: furin cleavage Z-score vs untreated control; higher = more cleavage, active = 3.5 or more, inactive = 1 or less, 8 variable residues between constant flanks;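 further: purified furin at 1:10 enzyme:substrate in 50 mM HEPES pH 7.5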
measurement_setup: 15 min
The list shows a part of the results. The true hit rate is not given.
Give a plain numeric answer without units written out.

Quick check: furin cleavage Z-score of CARQMRSASIAGNASASA [FS-2400] ?
2.25

Quick check: furin cleavage Z-score of CAMSTNPKPQAGNASASA [HC161] ?
-0.264

Quick check: furin cleavage Z-score of CATTPCGGSWAGNASASA [HC62] ?
0.588

Quick check: furin cleavage Z-score of CARHKKSKFTAGNASASA [FS-3253] ?
-0.415
